# System: HCV genotype 1b (Con1) replicon in HUH-7 cells
# methodSummary: HCV replicon luciferase reporter assay, genotype 1b
# Assay type: cell-based
# measurementParameters: Hepatitis C virus, Huh-7, 72 h, HCV genotype 1b replicon luciferase, 3 days incubation, read-out: LE_1b (EC50, range)
recordedMetric: EC50

INPUT: Fill blank: measured EC50 of the compound `CCOc1ccc2c(O[C@@H]3C[C@H]4C(=O)N[C@]5(C(=O)NS(=O)(=O)C6CC6)C[C@H]5/C=C\CC[C@H](C)C[C@@H](C)[C@H](NC(=O)OC(C)(C)C)C(=O)N4C3)nccc2c1` is ____.
OUTPUT: < 5.46 nM

INPUT: Fill blank: measured EC50 of the compound `CC[C@@H]1C[C@H](C)CC/C=C\[C@@H]2C[C@@]2(C(=O)NS(=O)(=O)C2CC2)NC(=O)[C@@H]2C[C@@H](Oc3nccc4cc(OC)c(F)cc34)CN2C(=O)[C@H]1NC(=O)OC(C)(C)C(C)(F)F` is ____.
OUTPUT: 0.1 to 0.5 nM
